Data provenance: patent EP0290169A2

System: Sarcoma 180 ascites
assay procedure: S180a screening (Sarcoma 180 ascites tumor model), increase in life span
Type: in vivo, CFW mice
experimental setup: dose 40.00 mg/kg on day 1, vehicle water; survivors on day of evaluation
Experimental: CFW mice, averaging 20 g, are innoculated on day zero with 0.2 mL of a freshly prepared saline suspension (0.15 M NaCI) containing 1 × 10^7 tumor cells/mL, or a total of 2 x 10^6 cells. On day I, the mice are injected with the test compound in the selected medium (usually water). […] The effectiveness of a compound is measured in terms of the increase in life span (ILS) of the test animals relative to the controls calculated from the day of tumor inoculation (day zero). […]
readout: Surv.

INSERT INTO measurements (compound, result) VALUES
  ('NC1CCCCC1N.O=C1[O][Pt][O]P(=O)([O-])C1c1ccccc1.[Na+] (mixture of isomers)', '0/ 6'),
  ('CCCC1C(=O)[O][Pt][O]P1(=O)[O-].N.N.[Na+] (racemic) [Ex 19, Na[cis-Pt(NH3)2(2-phosphonovalerate)]]', '0/ 6'),
  ('CC(C)N.CC(C)N.O=C1CP(=O)([O-])[O][Pt][O]1.[Na+] [Ex 9, Na[cis-Pt(i-PrNH2)2(phosphonoacetate)]]', '0/ 6'),
  ('CC(N)CN.CCC1C(=O)[O][Pt][O]P1(=O)[O-].[Na+] (mixture of isomers) [Ex 8, Na[Pt(pn)(2-phosphonobutyrate)]]', '0/ 6'),
  ('CCCC1C(=O)[O][Pt][O]P1(=O)[O-].NC1CCCCC1N.[Na+] (mixture of isomers)', '1/ 6'),
  ('N.N.O=C1[O][Pt][O]P(=O)([O-])C1c1ccccc1.[Na+] (racemic)', '0/ 6'),
  ('CCC(C)(C(=O)[O-])P(=O)([O-])[O-].N[C@@H]1CCCC[C@H]1N.[Na+].[Pt+2] (relative stereo)', '4/ 6');

====

# Surv. per entry
Test system: Sarcoma 180 ascites
assay procedure: S180a screening (Sarcoma 180 ascites tumor model), increase in life span
Assay type: in vivo, CFW mice
experimental setup: dose 80.00 mg/kg on day 1, vehicle water; survivors on day of evaluation
readout: Surv.

INSERT INTO assay_data (compound, result) VALUES
  ('NCCN.O=C1CP(=O)(O)[O][Pt][O]1 [Ex 16, H[Pt(en)(phosphonoacetate)]]', '4/ 6'),
  ('CCCC1C(=O)[O][Pt][O]P1(=O)[O-].N.N.[Na+] (racemic) [Ex 19, Na[cis-Pt(NH3)2(2-phosphonovalerate)]]', '0/ 6'),
  ('N.N.O=C1[O][Pt][O]P(=O)([O-])C1c1ccccc1.[Na+] (racemic)', '2/ 6'),
  ('N[C@@H]1CCCC[C@H]1N.O=C1[O][Pt][O]P1(=O)[O-].[Na+] [Ex 20, Na[Pt(trans-R,R-dach)(phosphonoformate)]]', '0/ 6');

====

Tested on: Sarcoma 180 ascites
assay procedure: S180a screening (Sarcoma 180 ascites tumor model), increase in life span
Format: in vivo, CFW mice
experimental setup: dose 80.00 mg/kg on day 1, vehicle water; survivors on day of evaluation
readout: Surv.

INSERT INTO assay_data (compound, result) VALUES
  ('CC(C)N.CC(C)N.O=C1CP(=O)([O-])[O][Pt][O]1.[Na+] [Ex 9, Na[cis-Pt(i-PrNH2)2(phosphonoacetate)]]', '0/ 6'),
  ('CC(N)CN.CC1C(=O)[O][Pt][O]P1(=O)[O-].[Na+] (mixture of isomers) [Ex 12, Na[Pt(pn)(2-phosphonopropionate)]]', '0/ 6'),
  ('CCCC1C(=O)[O][Pt][O]P1(=O)[O-].NC1CCCCC1N.[Na+] (mixture of isomers)', '5/ 6'),
  ('CC(N)CN.O=C1CP(=O)(O)[O][Pt][O]1 (racemic) [Ex 10, H[Pt(pn)(phasphonoacetate)]]', '0/ 6'),
  ('NC1CCCCC1N.O=C1[O][Pt][O]P(=O)([O-])C1c1ccccc1.[Na+] (mixture of isomers)', '2/ 6');
